Measured values drawn from ChEMBL document CHEMBL3286172 for this set.

Please go through the items and note down their log10 of ID50.
# Tested on: Human immunodeficiency virus type 1 reverse transcriptase (Human immunodeficiency virus 1), Q72547 [K103N]
Response schema: value (number) is log10 of ID50 in units of µM.

Query: log10 of ID50; subject: CCCCSc1nc(C(C)c2c(F)cccc2F)c(CC)c(=O)[nH]1 (racemic)
Result: -0.41

Query: Try the molecule CCCSc1nc(C(C)c2c(F)cccc2Cl)c(CC)c(=O)[nH]1 (racemic)
Result: 0.41

Query: # repeat for CCC(c1nc(SC(C)C)[nH]c(=O)c1C)c1c(F)cccc1Cl (racemic)
Result: -0.38

Query: Another: CCc1c(C(C)c2c(F)cccc2F)nc(SC2CCCC2)[nH]c1=O (racemic)
Result: -0.70

Query: Same question, Cc1c(C(C)c2c(F)cccc2Cl)nc(SC2CCCC2)[nH]c1=O (racemic) this time
Result: 0.11

Query: Cool, now CCC(C)Sc1nc(O)c(C)c(C(C)c2c(F)cccc2F)n1 (racemic)
Result: 0.23

Query: What do we get for CCCCSc1nc(C(CC)c2c(F)cccc2F)c(C)c(=O)[nH]1 (racemic) ?
Result: -0.55

----------
# TEST_DESCRIPTION: Selectivity index, ratio of CC50 for human MT4 cells to EC50 for wild type HIV-1 NL4-3 infected in human MT4 cells
# Assay type: toxicity, cell-based
# MEASUREMENT_CONTEXT: read-out: Ratio CC50/EC50
ENDPOINT: selectivity ratio

Query: Consider the compound shown here: CCCSc1nc(C(C)c2c(F)cccc2F)c(C)c(=O)[nH]1 (racemic) What is its recorded selectivity ratio?
Result: > 107

Query: Consider next the compound CCC(c1nc(SC(C)C)[nH]c(=O)c1C)c1c(F)cccc1F (racemic) in the same way.
Result: > 7500

Query: Also need CCCSc1nc(C(C)c2c(F)cccc2Cl)c(C)c(=O)[nH]1 (racemic) , thanks.
Result: > 30000

Query: How about Cc1c(Cc2c(F)cccc2Cl)nc(SC2CCCC2)[nH]c1=O ?
Result: > 394

Query: Same question for CCCCSc1nc(Cc2c(F)cccc2Cl)c(C)c(=O)[nH]1 please.
Result: > 664

Query: Can you handle Cc1c(Cc2c(F)cccc2Cl)nc(SC(C)C)[nH]c1=O next?
Result: > 633

Query: Note, next up: CCC(c1nc(SC2CCCC2)[nH]c(=O)c1C)c1c(F)cccc1F (racemic)
Result: 2730

Query: # repeat for CCC(C)Sc1nc(C(CC)c2c(F)cccc2F)c(C)c(=O)[nH]1 (racemic)
Result: > 3750

Query: Follow-up entry: CCCCSc1nc(Cc2c(F)cccc2Cl)cc(=O)[nH]1
Result: > 262

Query: And then CCC(C)Sc1nc(Cc2c(F)cccc2Cl)c(C)c(=O)[nH]1 (stereo not given) , what is it?
Result: > 1550

Query: Same for CCCCSc1nc(C(CC)c2c(F)cccc2Cl)c(C)c(=O)[nH]1 (racemic)
Result: > 27

Query: And CCCCSc1nc(O)c(C)c(C(C)c2c(F)cccc2F)n1 (racemic) ?
Result: > 60

Query: Proceed to CCC(c1nc(SC(C)C)[nH]c(=O)c1C)c1c(F)cccc1Cl (racemic)
Result: > 36

Query: What do you have for Cc1c(C(C)c2c(F)cccc2Cl)nc(SC2CCCC2)[nH]c1=O (racemic) ?
Result: > 500000

Query: Would you kindly repeat that for CCCCSc1nc(C(CC)c2c(F)cccc2F)c(C)c(=O)[nH]1 (racemic) ?
Result: > 130

Query: Also need CCc1c(C(C)c2c(F)cccc2Cl)nc(SC(C)CC)[nH]c1=O (racemic) , thanks.
Result: > 11

Query: Likewise for CC[C@H](C)Sc1nc([C@H](C)c2c(F)cccc2Cl)cc(=O)[nH]1 (racemic) ?
Result: > 3540

Query: Consider next the compound CCCSc1nc(Cc2c(F)cccc2Cl)cc(=O)[nH]1 in the same way.
Result: > 308

Query: Then this compound: CCCCSc1nc(C(C)c2c(F)cccc2F)c(CC)c(=O)[nH]1 (racemic)
Result: > 53

Query: Continue with CCC(c1nc(SC2CCCC2)[nH]c(=O)c1C)c1c(F)cccc1Cl (racemic)
Result: > 5
